Hello, the source for this data is PubChem BioAssay (NCI), in case you need it.

- System: MALME-3M melanoma
- experimental protocol: NCI tumour cell line growth inhibition, 48 h; in the data active = GI50 below about 0.43 µM; inactive = the rest
The categories you may choose from are active, inactive

Sample answers from the record:
compound	study system	class assignment
CC(C)C(=O)[O-].CC(C)C(=O)[O-].N.N.N.N.[Co+3].[O-][Cl+3]([O-])([O-])[O-]	MALME-3M melanoma	inactive
Nc1nccc2c1ncn2C1OC(CO)C(O)C1O (stereo unspecified)	MALME-3M melanoma	inactive
Cc1nc2c(N3CCCC3)nc(N3CCNCC3)nc2nc1NCc1ccccc1	MALME-3M melanoma	inactive
O=C(CCSc1ccnc2c(C(F)(F)F)cccc12)N/N=C/c1cc(Cl)c(Cl)cc1Cl	MALME-3M melanoma	inactive
CSc1ccc(SC2c3ccc(C)cc3Oc3nc(N)c(C#N)c(N)c32)cc1 (stereo unspecified)	MALME-3M melanoma	inactive
NCCCN1CCN(CCCNc2nc3ccccc3c3[nH]c4ccccc4c23)CC1	MALME-3M melanoma	inactive
COc1ccc(-c2cc(-c3cccc(NS(C)(=O)=O)c3)nc(N)c2C#N)cc1	MALME-3M melanoma	active
Cc1cc(N(CCCNc2ccnc3cc(Cl)ccc23)Cc2ccc3c(c2)OCO3)nc(N2CCCCC2)n1	MALME-3M melanoma	inactive
O=S(=O)(NC1=NCCN1C(=S)SN1CCn2c1nsc2=S)c1ccccc1Cl	MALME-3M melanoma	inactive
O=C(COc1cccc(/C=C2\Oc3ccc4ccccc4c3C2=O)c1)c1ccc(Cl)cc1	MALME-3M melanoma	inactive

How was O=C(N/N=C/c1ccc(Cl)cc1Cl)c1ccc2nc(-c3ccc(Cl)cc3)[nH]c2c1 classified in this test? inactive

How was CC(C)C[C@H](NC(=O)CCn1ccc2ncccc2c1=O)B(O)O classified in this test? inactive

How was COc1cc(NC(=O)NCc2ccco2)ccc1-c1ccc(NC(=O)NCc2ccco2)cc1OC classified in this test? inactive

How was COc1cccc(N=N/C(=N\NC(=O)c2cc(Br)ccc2O)c2ccc(N(CCC#N)CCC#N)cc2OC)c1 classified in this test? inactive

How was CCCCCCCCCCCCCCCCCCOc1ccccc1CC(=O)NCC[N+](C)(C)C classified in this test? inactive

###

- System: HOP-92 NSCLC
- experimental protocol: NCI tumour cell line growth inhibition, 48 h
Quick reference: TGI of the listed items.
Write the value in µM as a bare number.

Past entries and their recorded results:
molecule	unit text	number
CC1=CCC[C@H]2[C@](C)(CC3=CC(=O)C(Sc4ccccc4)=CC3=O)[C@@H](C)CC[C@]12C	µM	31.9
CN1C[C@@H]2Cn3c(c(C4=C(c5cn(C)c6ccccc56)C(=O)NC4=O)c4ccccc43)C[C@H]2C1	µM	12.7
O=C1CS(=O)(=O)C(c2cccc(Oc3ccccc3)c2)N1c1ccccc1 (stereo not drawn)	µM	32.8

Here is another molecule to look at.
Item Cc1c(O)c(OC2OC(CO)C(O)C(O)C2O)cc2c1C=C[C@@H]1[C@@]2(C)C(=O)C[C@]2(C)[C@@H]([C@@](C)(O)C(=O)CCC(C)(C)O)[C@H](O)C[C@@]12C (stereo partly drawn) was tested on HOP-92 NSCLC; the reported TGI is 40.8

###

Quick reference: TGI of the listed items.
- System: A498 renal
- experimental protocol: NCI tumour cell line growth inhibition, 48 h
Write the value in µM as a bare number.

> print(dat)
                            compound.string  study.system  number
1  CCCc1nnc2sc(COc3cc(Cl)c(OCc4nn5c(CCC)nnc5s4)cc3Cl)nn12    A498 renal    98.4

Here is another compound to look at.
Item CCCCCCCCCCCCCCCCCCOc1ccccc1CC(=O)NCC[N+](C)(C)C was tested on A498 renal; the reported TGI is 49.8

###

- Tested on: OVCAR-5 ovarian
- experimental protocol: NCI tumour cell line growth inhibition, 48 h
assay readout: TGI

Past entries and their recorded results:
> print(dat)
                                   molecule     result
1                CN(C)c1ccc(/C=C/C(=O)O)cc1   > 100 µM
2  CCCCCCCCCCCCCCCCCC(=O)Nc1ccn(C2CCC(COP(=O)(O)O)O2)c(=O)n1 (stereo not drawn)   > 100 µM
3  COc1ccc(CNc2nc3cc(C(F)(F)F)ccc3nc2-c2ccccc2)cc1OC   > 100 µM
4  CN(C)CC1CCC/C(=C\c2ccc(OC(=O)/C=C/c3ccc(Cl)c(Cl)c3)cc2)C1=O (stereo not drawn)  > 65.3 µM
5  Cc1cc(N(CCC#N)CCC#N)ccc1/C=C1\SC(=S)NC1=O   > 100 µM
6  CCN(CC)CCOc1ccc(C(O)(Cc2ccc(OC)cc2)c2ccccc2)cc1 (stereo not drawn)    61.5 µM
7  COc1cc(NC(=O)NCc2ccco2)ccc1-c1ccc(NC(=O)NCc2ccco2)cc1OC   > 100 µM

Here is another molecule to look at.
Item CC(=O)OC(C)c1cc2c(s1)C(=O)c1c(C(C)OC(C)=O)csc1C2=O (stereo not drawn) was tested on OVCAR-5 ovarian; the reported TGI is 3.41 µM

###

- System: RXF 393 renal
- experimental protocol: NCI tumour cell line growth inhibition, 48 h
Quick reference: GI50 of the listed items.

Past entries and their recorded results:
> print(dat)
                                   molecule    result
1  COc1cc(C2CC(=O)Nc3c2ccc2ccccc32)cc(Br)c1OC (stereo not given)    780 nM
2  C[C@@H](COCCC(=O)N1CCN(c2ncc(C(F)(F)F)cn2)CC1)Nc1cn[nH]c(=O)c1C(F)(F)F  32800 nM
3  COc1ccc(-c2cc(-c3cccc(NS(C)(=O)=O)c3)nc(N)c2C#N)cc1   50.6 nM
4  COc1cc(F)c(/C=C/c2cc(/C=C/c3cc(OC)c(OC)cc3F)n(-c3cc(F)cc(F)c3)n2)cc1OC   5070 nM

Here is another molecule to look at.
GI50 reading for Cc1ccc2nc(-c3ccc(N)c4ccccc34)[nH]c2c1 : 265 nM

###

- Test system: NCI-H522 lung
- experimental protocol: NCI tumour cell line growth inhibition, 48 h
assay readout: GI50

Past entries and their recorded results:
> print(dat)
                                   molecule   result
1  O=C1c2ccccc2-c2c1c1ccc([N+](=O)[O-])cc1c(=O)n2CCCNCCO   154 nM
2     Cc1ccc2nc(-c3ccc(N)c4ccccc34)[nH]c2c1  95.8 nM
3  COc1ccc(-c2cc(-c3cccc(NS(C)(=O)=O)c3)nc(N)c2C#N)cc1  16.4 nM

Here is another molecule to look at.
GI50 reading for CSc1ccc(SC2c3ccc(C)cc3Oc3nc(N)c(C#N)c(N)c32)cc1 (stereo not given) : 1700 nM

###

Quick reference: TGI of the listed items.
- Test system: RPMI-8226 leukemia
- experimental protocol: NCI tumour cell line growth inhibition, 48 h

Past entries and their recorded results:
compound	study system	TGI
Cc1ncc(C(=O)Nc2ccc(CN3CCN(C)CC3)c(C(F)(F)F)c2)cc1C#Cc1c(N)ncc2ccccc12	RPMI-8226 leukemia	1.26 µM
CCOC(=O)N1C(c2ccccc2)C=CC(c2ccccc2)N1C(=O)OCC (stereo unspecified)	RPMI-8226 leukemia	> 100 µM
Nc1ccc(C(OC(=O)c2cc3ccccc3c(Cc3c(O)c(C(=O)OC(c4ccc(N)cc4)(c4ccc(N)cc4)c4ccc(N)cc4)cc4ccccc34)c2O)(c2ccc(N)cc2)c2ccc(N)cc2)cc1	RPMI-8226 leukemia	> 100 µM

TGI reading for CN(C)CCSCCO : > 100 µM

TGI reading for C[n+]1c2ccccc2c(/C=N\NS(=O)(=O)c2ccc(Cl)cc2)c2ccccc21 : > 100 µM

TGI reading for N#CC[N+]1(Cc2ccccn2)CCCC1 : > 100 µM

###

Quick reference: TGI of the listed items.
- Tested on: OVCAR-8 ovarian
- experimental protocol: NCI tumour cell line growth inhibition, 48 h

Past entries and their recorded results:
compound	study system	TGI
CCCCn1c2ccccc2c2ccc3c(c21)C(=O)C=CC3=O	OVCAR-8 ovarian	> 100 µM
COc1cc(OC2OC(COC(=O)c3cc(O)c(O)c(O)c3)C(O)C(O)C2O)ccc1O (configuration not stated)	OVCAR-8 ovarian	> 100 µM
Cc1ccc2c(C(=O)c3c(C)n(CCN4CCOCC4)c4ccccc34)cccc2c1	OVCAR-8 ovarian	56.1 µM
N#Cc1ccc(Oc2cccc(Oc3ccccc3)c2)cc1C#N	OVCAR-8 ovarian	> 100 µM
CN[C@@H](C)[C@@H](O)c1ccccc1	OVCAR-8 ovarian	> 100 µM
CCOC(=O)N1C(c2ccccc2)C=CC(c2ccccc2)N1C(=O)OCC (configuration not stated)	OVCAR-8 ovarian	> 100 µM
C=C1CCCC2[C@](C)(CC3=C(O)C(=O)C=C(OC)C3=O)[C@@H](C)CC[C@]12C (some centres not stated)	OVCAR-8 ovarian	> 100 µM
Cn1ccnc1CCc1ccc(Cl)c(Cl)c1	OVCAR-8 ovarian	> 100 µM
COC(=O)[C@]12CC[C@@H](C)[C@H](C)[C@@H]1C1=CC[C@@H]3[C@@]4(C)C(C=O)=C[C@@](C)(COS(C)(=O)=O)C4[C@H](O)C[C@@]3(C)[C@]1(C)CC2 (some centres not stated)	OVCAR-8 ovarian	5.71 µM
C[C@@H](COCCC(=O)N1CCN(c2ncc(C(F)(F)F)cn2)CC1)Nc1cn[nH]c(=O)c1C(F)(F)F	OVCAR-8 ovarian	> 100 µM

TGI reading for CCOC(=O)C(NC(=O)CC)(Nc1ccc(F)c(Cl)c1)C(F)(F)F (configuration not stated) : > 100 µM

TGI reading for O=C(NC1C2CC3CC(C2)CC1C3)/C(Cl)=C1/Sc2ccccc2NC1=O (configuration not stated) : > 100 µM

TGI reading for N#Cc1nc2c(S(=O)(=O)c3ccccc3)c(N)n(Cc3ccc(Cl)cc3)c2nc1C#N : 47.6 µM

TGI reading for Cc1c(O)c(OC2OC(CO)C(O)C(O)C2O)cc2c1C=C[C@@H]1[C@@]2(C)C(=O)C[C@]2(C)[C@@H]([C@@](C)(O)C(=O)CCC(C)(C)O)[C@H](O)C[C@@]12C (some centres not stated) : > 100 µM

TGI reading for O=[N+]([O-])c1cccc(Cl)c1Oc1ccc(S(=O)(=O)/N=C(\NO)Nc2ccc(Cl)cc2)cc1 : 39.6 µM

TGI reading for C=Cc1nc(C#N)c(N)o1 : > 100 µM

TGI reading for O=C(C(Cl)=C(N1CCCCC1)N1CCCCC1)C(Cl)Cl : > 100 µM

TGI reading for Cc1ccc(S(=O)(=O)N/N=C2/CCC(C(C)(C)C)CC2Br)cc1 (configuration not stated) : > 100 µM

TGI reading for CC12ON(P(=O)(c3ccccc3)c3ccccc3)C(C)(c3ccccc31)c1ccccc12 : > 100 µM

TGI reading for O=C1CS[C@@](CC(c2ccc(Cl)cc2)c2ccc(Cl)cc2)(c2ccc(Cl)cc2)N1 : > 100 µM

TGI reading for CN(C)CCCCn1ccc2c1C(=O)c1c(c(O)c3ccccc3c1O)C2=O : 25.6 µM
